TARGET OF ASSAY: Serine/threonine-protein kinase 4 (Homo sapiens)
Sequence (whole entry): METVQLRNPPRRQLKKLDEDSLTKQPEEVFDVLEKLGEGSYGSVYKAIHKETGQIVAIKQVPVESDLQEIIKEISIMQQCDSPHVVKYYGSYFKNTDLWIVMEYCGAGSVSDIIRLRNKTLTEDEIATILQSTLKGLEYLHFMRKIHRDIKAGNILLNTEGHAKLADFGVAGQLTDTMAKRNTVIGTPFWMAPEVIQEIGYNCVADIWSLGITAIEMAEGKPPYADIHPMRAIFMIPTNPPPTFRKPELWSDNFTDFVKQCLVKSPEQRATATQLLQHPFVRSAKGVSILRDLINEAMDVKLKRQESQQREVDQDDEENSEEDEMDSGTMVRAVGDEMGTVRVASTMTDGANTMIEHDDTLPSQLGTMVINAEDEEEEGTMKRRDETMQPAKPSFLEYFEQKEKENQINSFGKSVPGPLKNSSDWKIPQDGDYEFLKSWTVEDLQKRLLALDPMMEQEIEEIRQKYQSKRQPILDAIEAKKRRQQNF
CONDITION DETAILS: at 10 µM
// thresholds for residual activity classes: bottom = under 40%, middle = from 40% up to 80%, top = 80% and over

Category of NC(=O)Nc1sc(-c2ccc(F)cc2)cc1C(N)=O , please.
bottom

Category of CC(C)c1nn(-c2c(Cl)cccc2Cl)c2nc(Cc3ccc(OCCO)cc3)[nH]c(=O)c12 , please.
middle

Category of Oc1cccc(-c2nc(N3CCOCC3)c3oc4ncccc4c3n2)c1 , please.
top

Category of O=C1NC(=O)c2c1c1c3ccccc3[nH]c1n1cncc21 , please.
bottom

Category of Nc1nc(Nc2ccc(S(N)(=O)=O)cc2)nn1C(=O)c1c(F)cccc1F , please.
bottom

Category of N#C/C(=C1/Nc2ccccc2S1)c1ccnc(NCCc2cccnc2)n1 , please.
top

Category of O=C1Cc2c([nH]c3ccc(Br)cc23)-c2ccccc2N1 , please.
bottom

Category of O=C(CCCc1ccc(-c2ccccc2F)cc1)Nc1ccc(O)cc1 , please.
top

Category of Nc1ncnc2c1c(-c1ccc(Oc3ccccc3)cc1)cn2C1CCCC1 , please.
middle

Category of O=c1cc(N2CCOCC2)oc2c1ccc1ccccc12 , please.
top

Category of COc1cc2nccc(Oc3ccc(NC(=O)Nc4cc(C)on4)c(Cl)c3)c2cc1OC , please.
middle
